- assay.details: Primary fluorescence-based thiol-reactive (MSTI) qHTS assay for identification of artifact compounds. (AID 1845221); also: nearly all actives have a fitted effect of over 65% in size
- condition.details: MSTI thiol-reactivity probe, 1 h; series mostly up to 53.8 µM
Results filed as inconclusive are left out. Active and inactive are the calls of the source. Calls follow the shape of the dose curve; as a rule, active = well fitted inhibition curve with a large enough effect; inconclusive = small, poorly fitted or top-dose-only effect; inactive = no such curve, though single readings can be large or run the other way.
Would you mind answering with one of these outcomes? active, inactive

Worked examples follow.
1. CC(=O)C12OC(C)(C)OC1CC1C3CCC4=CC(=O)C=CC4(C)C3(F)C(O)CC12C (centres undefined) :: inactive
2. CC1(C)CC2C(C1)C(C)(O)C13CC1(COC3=O)C2O (centres undefined) :: inactive
3. O=C1CCC(c2ccccc2)(C2CCN(Cc3ccc(I)cc3)CC2)C(=O)N1 (centres undefined) :: inactive
4. COc1cc2nc(N3CCCC3)nc(NCCCCCN3CCCC3)c2cc1OC :: inactive

Given O=C1OCc2cc3cccc(O[C@@H]4O[C@H](CO)[C@@H](O)[C@H](O)[C@H]4O)c3c(O)c21 , state the outcome it received in this test.
active

Given Cn1ncnc1COc1nn2c(-c3cc(F)ccc3F)nnc2cc1C(C)(C)C , state the outcome it received in this test.
inactive
